Values from patent US10702526B2

Tested on: IL-10 production in primary T cells
ASSAY NOTES: IL-10 production by activated primary T cells
Format: cell-based, human
MEASUREMENT KIND: % IL-10 Inhibition

1. Cc1cc(Nc2ncnc(N)c2C)c(=O)n2c1C(=O)NC21CCN(CC(F)F)CC1 [Compound 590]; ++++ (++++ = 75-100%)
2. Cc1cc(Nc2ncnc(N)c2Cl)c(=O)n2c1C(=O)NC21CCCCC1 [Compound 474]; ++++ (++++ = 75-100%)
3. Cc1cc(Nc2cc(N)ncn2)c(=O)n2c1C(=O)NC21CCCCC1.Cl [Compound 107]; ++++ (++++ = 75-100%)
4. Cc1cc(Nc2ncnc(N)c2Cl)c(=O)n2c1C(=O)NC21CCCNC1 (stereo not shown) [Compound 750]; ++++ (++++ = 75-100%)
